Target: TNKS1 (tankyrase) (Homo sapiens)
Sequence (O95271 whole entry): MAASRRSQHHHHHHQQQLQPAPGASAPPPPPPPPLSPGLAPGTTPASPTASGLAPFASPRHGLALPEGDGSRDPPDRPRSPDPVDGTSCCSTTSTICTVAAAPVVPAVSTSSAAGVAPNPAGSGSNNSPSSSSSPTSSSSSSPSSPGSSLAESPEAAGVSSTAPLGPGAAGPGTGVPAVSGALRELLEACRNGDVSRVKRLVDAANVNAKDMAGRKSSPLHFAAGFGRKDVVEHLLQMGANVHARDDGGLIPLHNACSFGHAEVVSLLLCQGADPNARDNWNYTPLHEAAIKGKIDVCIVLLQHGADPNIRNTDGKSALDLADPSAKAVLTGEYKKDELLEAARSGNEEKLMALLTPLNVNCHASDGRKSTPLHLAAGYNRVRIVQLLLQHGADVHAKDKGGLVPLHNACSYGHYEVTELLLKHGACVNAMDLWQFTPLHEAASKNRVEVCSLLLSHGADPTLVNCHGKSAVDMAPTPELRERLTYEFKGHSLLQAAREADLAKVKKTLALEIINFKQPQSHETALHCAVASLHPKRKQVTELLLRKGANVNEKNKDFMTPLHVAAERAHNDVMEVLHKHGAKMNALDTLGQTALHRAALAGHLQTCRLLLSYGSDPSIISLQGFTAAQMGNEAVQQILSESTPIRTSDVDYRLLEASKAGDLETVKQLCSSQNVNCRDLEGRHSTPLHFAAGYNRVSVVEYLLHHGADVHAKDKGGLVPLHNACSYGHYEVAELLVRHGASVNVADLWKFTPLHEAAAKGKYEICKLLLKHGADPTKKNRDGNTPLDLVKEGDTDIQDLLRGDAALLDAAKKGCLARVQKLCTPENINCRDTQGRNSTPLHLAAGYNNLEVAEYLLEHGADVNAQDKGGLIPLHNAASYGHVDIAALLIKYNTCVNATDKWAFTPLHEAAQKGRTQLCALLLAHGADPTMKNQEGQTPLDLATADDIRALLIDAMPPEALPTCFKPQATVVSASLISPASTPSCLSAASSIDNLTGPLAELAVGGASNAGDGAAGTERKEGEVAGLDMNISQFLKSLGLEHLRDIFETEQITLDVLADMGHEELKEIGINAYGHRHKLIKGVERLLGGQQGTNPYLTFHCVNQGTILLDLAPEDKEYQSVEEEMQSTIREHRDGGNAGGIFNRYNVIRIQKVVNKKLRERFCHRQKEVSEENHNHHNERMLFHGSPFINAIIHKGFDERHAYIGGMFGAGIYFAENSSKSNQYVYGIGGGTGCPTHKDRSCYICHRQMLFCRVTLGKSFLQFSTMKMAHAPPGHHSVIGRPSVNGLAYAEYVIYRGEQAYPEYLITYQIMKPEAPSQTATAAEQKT
MEASURED_PARAMETER: IC50

Give the observed IC50 of "N#Cc1ccccc1N1CCC(C(=O)Nc2nnc3ccccn23)CC1" for TNKS1 (tankyrase) (Homo sapiens).
29 nM

----------
Biological target: TNKS2 (tankyrase 2) (Homo sapiens, UniProt Q9H2K2)
Sequence (Q9H2K2 1-1166): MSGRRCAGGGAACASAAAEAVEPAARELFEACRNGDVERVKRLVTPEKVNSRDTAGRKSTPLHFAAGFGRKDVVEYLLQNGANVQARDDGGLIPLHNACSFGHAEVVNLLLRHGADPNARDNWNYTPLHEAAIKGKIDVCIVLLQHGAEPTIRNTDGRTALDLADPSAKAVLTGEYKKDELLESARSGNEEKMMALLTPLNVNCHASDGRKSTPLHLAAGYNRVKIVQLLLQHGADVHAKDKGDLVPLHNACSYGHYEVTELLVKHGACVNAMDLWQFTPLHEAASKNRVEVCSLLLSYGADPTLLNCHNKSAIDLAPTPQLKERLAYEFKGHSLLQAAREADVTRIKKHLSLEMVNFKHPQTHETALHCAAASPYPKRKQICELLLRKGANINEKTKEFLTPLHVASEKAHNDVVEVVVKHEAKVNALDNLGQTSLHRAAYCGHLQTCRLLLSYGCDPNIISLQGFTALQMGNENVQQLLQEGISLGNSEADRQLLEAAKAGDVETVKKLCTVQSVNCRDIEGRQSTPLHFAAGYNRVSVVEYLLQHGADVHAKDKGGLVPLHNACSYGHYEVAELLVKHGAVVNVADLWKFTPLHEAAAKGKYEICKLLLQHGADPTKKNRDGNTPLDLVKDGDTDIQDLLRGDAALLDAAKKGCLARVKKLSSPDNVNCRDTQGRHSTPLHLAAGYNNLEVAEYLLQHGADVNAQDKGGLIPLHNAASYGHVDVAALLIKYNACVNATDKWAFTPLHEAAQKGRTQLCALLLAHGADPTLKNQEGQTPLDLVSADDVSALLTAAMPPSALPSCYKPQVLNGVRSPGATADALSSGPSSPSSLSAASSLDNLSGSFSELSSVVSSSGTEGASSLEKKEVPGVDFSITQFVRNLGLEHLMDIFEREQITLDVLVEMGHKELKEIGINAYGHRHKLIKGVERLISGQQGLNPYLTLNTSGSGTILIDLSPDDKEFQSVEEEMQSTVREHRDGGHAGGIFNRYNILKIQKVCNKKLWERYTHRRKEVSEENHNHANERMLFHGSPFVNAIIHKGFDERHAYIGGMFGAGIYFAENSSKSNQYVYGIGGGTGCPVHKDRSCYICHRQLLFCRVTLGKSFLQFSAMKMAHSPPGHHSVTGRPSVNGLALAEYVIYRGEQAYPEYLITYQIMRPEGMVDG
MEASURED_PARAMETER: IC50 (µM)
Response body: numeric value in µM, unit text excluded.

Write down IC50 measured for item "N#Cc1ccccc1N1CCC(C(=O)Nc2nnc3ccccn23)CC1"
0.06
